tested on: HT-29; assay: Cytotoxicity against human HT-29 cells assessed as reduction in cell viability after 48 hrs under normoxic conditions by MTT assay; type: functional, cell-based; conditions: HT-29, 48 h
pIC50: −log10 of the molar value.
Please respond with reported pIC50 for every item in the list.

Look over these answered cases.
>  <smiles record>
NS(=O)(=O)c1cc(NC(=O)Nc2ccc3c(c2)OCO3)c(O)c([N+](=O)[O-])c1

>  <pIC50>
< 3.70

$$$$
>  <smiles record>
NS(=O)(=O)c1cc(NC(=O)NCCc2ccccc2)c(O)c([N+](=O)[O-])c1

>  <pIC50>
< 3.70

$$$$
>  <smiles record>
NS(=O)(=O)c1cc(NC(=O)Nc2c(F)c(F)c(F)c(F)c2F)c(O)c([N+](=O)[O-])c1

>  <pIC50>
< 3.70

$$$$
>  <smiles record>
Nc1cc(S(N)(=O)=O)cc([N+](=O)[O-])c1O

>  <pIC50>
< 3.70

$$$$
>  <smiles record>
NS(=O)(=O)c1cc(NC(=O)Nc2cc(C(F)(F)F)cc(C(F)(F)F)c2)c(O)c([N+](=O)[O-])c1

>  <pIC50>
4.22

$$$$

Provide each entry's pIC50 from the list below.
1. NS(=O)(=O)c1cc(NC(=O)c2ccc(F)cc2)c(OC(=O)c2ccc(F)cc2)c([N+](=O)[O-])c1
2. CC(=O)OC[C@@H]1O[C@@H](OC(C)=O)[C@@H](NC(=O)Nc2cc(S(N)(=O)=O)cc([N+](=O)[O-])c2O)[C@H](OC(C)=O)[C@H]1OC(C)=O
3. NS(=O)(=O)c1cc(NC(=O)Nc2ccc(F)cc2)c(O)c([N+](=O)[O-])c1
4. Cc1cc(C)[n+](-c2cc(S(N)(=O)=O)cc([N+](=O)[O-])c2O)c(C)c1.[O-][Cl+3]([O-])([O-])[O-]

1. 4.39
2. < 3.70
3. < 3.70
4. < 3.70

----------
Target or system Carbonic anhydrase 12 (Homo sapiens, UniProt O43570): recorded Ki listed per item.
One number for each entry, in nM.

// input: 4 compounds below; output: Ki for each
1. Cc1cc(NC(=O)Nc2cc(S(N)(=O)=O)cc([N+](=O)[O-])c2O)ccc1F
2. CC(=O)OC[C@@H]1O[C@@H](OC(C)=O)[C@@H](NC(=O)Nc2cc(S(N)(=O)=O)cc([N+](=O)[O-])c2O)[C@H](OC(C)=O)[C@H]1OC(C)=O
3. NS(=O)(=O)c1cc(NC(=O)NCc2ccco2)c(O)c([N+](=O)[O-])c1
4. NS(=O)(=O)c1cc(NC(=O)Nc2ccccc2)c(O)c([N+](=O)[O-])c1

1: 880; 2: 790; 3: 530; 4: 830

----------
Could you please report measured pIC50 for the items listed next?
test system: PC-3; assay: Cytotoxicity against human PC3 cells assessed as reduction in cell viability after 48 hrs under normoxic conditions by MTT assay; format: functional, cell-based; conditions: PC-3, 48 h
Numbers only, as −log10 of the molar value.

>  <smiles record>
NS(=O)(=O)c1cc(NC(=O)Nc2cc(C(F)(F)F)cc(C(F)(F)F)c2)c(O)c([N+](=O)[O-])c1

>  <pIC50>
4.16

$$$$

Which value of pIC50 has been reported for "NS(=O)(=O)c1cc(NC(=O)c2ccc(F)cc2)c(OC(=O)c2ccc(F)cc2)c([N+](=O)[O-])c1" in the records? 4.51

----------
Notes on pKi obtained with Carbonic anhydrase 9 (Homo sapiens, UniProt Q16790).
One number for each entry, as −log10 of the molar value.

Below are worked cases with known answers.
>  <compound>
NS(=O)(=O)c1cc(NC(=O)Nc2ccc3c(c2)OCO3)c(O)c([N+](=O)[O-])c1

>  <assayed system>
Carbonic anhydrase 9 (Homo sapiens, UniProt Q16790)

>  <numeric value>
6.82

$$$$
>  <compound>
Nc1cc(S(N)(=O)=O)cc([N+](=O)[O-])c1O

>  <assayed system>
Carbonic anhydrase 9 (Homo sapiens, UniProt Q16790)

>  <numeric value>
6.68

$$$$
>  <compound>
NS(=O)(=O)c1cc(NC(=O)c2ccc(F)cc2)c(OC(=O)c2ccc(F)cc2)c([N+](=O)[O-])c1

>  <assayed system>
Carbonic anhydrase 9 (Homo sapiens, UniProt Q16790)

>  <numeric value>
7.00

$$$$
>  <compound>
CC(=O)OC[C@@H]1O[C@@H](OC(C)=O)[C@@H](NC(=O)Nc2cc(S(N)(=O)=O)cc([N+](=O)[O-])c2O)[C@H](OC(C)=O)[C@H]1OC(C)=O

>  <assayed system>
Carbonic anhydrase 9 (Homo sapiens, UniProt Q16790)

>  <numeric value>
6.54

$$$$
>  <compound>
NS(=O)(=O)c1cc([N+](=O)[O-])c(OC(=O)c2ccccc2)c([N+](=O)[O-])c1

>  <assayed system>
Carbonic anhydrase 9 (Homo sapiens, UniProt Q16790)

>  <numeric value>
7.05

$$$$
>  <compound>
Cc1cc(C)cc(NC(=O)Nc2cc(S(N)(=O)=O)cc([N+](=O)[O-])c2O)c1

>  <assayed system>
Carbonic anhydrase 9 (Homo sapiens, UniProt Q16790)

>  <numeric value>
6.28

$$$$
>  <compound>
NS(=O)(=O)c1cc(NC(=O)NCc2ccco2)c(O)c([N+](=O)[O-])c1

>  <assayed system>
Carbonic anhydrase 9 (Homo sapiens, UniProt Q16790)

>  <numeric value>
6.41

$$$$
>  <compound>
NS(=O)(=O)c1cc(O)c(O)c([N+](=O)[O-])c1

>  <assayed system>
Carbonic anhydrase 9 (Homo sapiens, UniProt Q16790)

>  <numeric value>
6.62

$$$$

Provide each entry's pKi from the list below.
1. NS(=O)(=O)c1cc(NC(=O)Nc2ccc(F)cc2)c(O)c([N+](=O)[O-])c1
2. NS(=O)(=O)c1ccc(O)c([N+](=O)[O-])c1
3. NS(=O)(=O)c1cc(NC(=O)c2ccccc2)c(OC(=O)c2ccccc2)c([N+](=O)[O-])c1
4. NS(=O)(=O)c1cc(NC(=O)Nc2ccc(C(F)(F)F)cc2)c(O)c([N+](=O)[O-])c1
5. NS(=O)(=O)c1cc(NC(=O)Nc2cc(C(F)(F)F)cc(C(F)(F)F)c2)c(O)c([N+](=O)[O-])c1
6. NS(=O)(=O)c1cc(NC(=O)Nc2c(F)c(F)c(F)c(F)c2F)c(O)c([N+](=O)[O-])c1
7. NS(=O)(=O)c1cc(NC(=O)Nc2ccccc2)c(O)c([N+](=O)[O-])c1

[6.47, 6.92, 6.89, 6.20, 6.47, 6.54, 6.03]

Quick one: give me pKi for each item below, same order please.
1. COc1cccc(NC(=O)Nc2cc(S(N)(=O)=O)cc([N+](=O)[O-])c2O)c1
2. NS(=O)(=O)c1cc(NC(=O)N[C@@H]2C(O)O[C@@H](CO)[C@H](O)[C@H]2O)c(O)c([N+](=O)[O-])c1 (stereo not given in full)
3. Cc1cc(C)[n+](-c2cc(S(N)(=O)=O)cc([N+](=O)[O-])c2O)c(C)c1.[O-][Cl+3]([O-])([O-])[O-]
4. NS(=O)(=O)c1cc(NC(=O)NCCc2ccccc2)c(O)c([N+](=O)[O-])c1
5. Cc1cc(NC(=O)Nc2cc(S(N)(=O)=O)cc([N+](=O)[O-])c2O)ccc1F

[6.34, 6.77, 6.82, 6.96, 6.43]

----------
species: Homo sapiens; experiment: Selectivity ratio of Ki for carbonic anhydrase 2 (unknown origin) to Ki for carbonic anhydrase 9 (unknown origin)
For each of the compounds below, state its Ratio Ki.
One number for each entry.

>  <smiles record>
NS(=O)(=O)c1cc(NC(=O)NCCc2ccccc2)c(O)c([N+](=O)[O-])c1

>  <Ratio Ki>
28

$$$$
>  <smiles record>
NS(=O)(=O)c1cc(NC(=O)Nc2cc(C(F)(F)F)cc(C(F)(F)F)c2)c(O)c([N+](=O)[O-])c1

>  <Ratio Ki>
5

$$$$
>  <smiles record>
NS(=O)(=O)c1cc(NC(=O)Nc2ccccc2)c(O)c([N+](=O)[O-])c1

>  <Ratio Ki>
3

$$$$

// below: Ratio Ki requested for another compound
So what's the measured Ratio Ki for this one? "NS(=O)(=O)c1cc(NC(=O)Nc2ccc3c(c2)OCO3)c(O)c([N+](=O)[O-])c1" 30

----------
test system: MDA-MB-231; test: Cytotoxicity against human MDA-MB-231 cells assessed as reduction in cell viability after 48 hrs under normoxic conditions by MTT assay; format: functional, cell-based; details: MDA-MB-231, 48 h
For each entry below, report its IC50 value.

Please look at the items below and tell me IC50 for each one, in order.
1. NS(=O)(=O)c1cc(NC(=O)c2ccc(F)cc2)c(OC(=O)c2ccc(F)cc2)c([N+](=O)[O-])c1
2. Cc1cc(C)[n+](-c2cc(S(N)(=O)=O)cc([N+](=O)[O-])c2O)c(C)c1.[O-][Cl+3]([O-])([O-])[O-]
3. NS(=O)(=O)c1cc(NC(=O)Nc2c(F)c(F)c(F)c(F)c2F)c(O)c([N+](=O)[O-])c1
4. NS(=O)(=O)c1cc(NC(=O)Nc2ccc3c(c2)OCO3)c(O)c([N+](=O)[O-])c1
5. NS(=O)(=O)c1cc(NC(=O)Nc2cc(C(F)(F)F)cc(C(F)(F)F)c2)c(O)c([N+](=O)[O-])c1

1: > 200 µM; 2: < 30 µM; 3: > 200 µM; 4: > 200 µM; 5: 196 µM
